Numbers sourced from the supplement of paper PMC7287046.

# System: SF268
# Method description: HSA synergy score (Combenefit); higher = more synergy
# Condition description: exposure time: 72 h
Each entry below carries its reported HSA synergy score.
Measured parameter: HSA synergy score

- Compound: "C#Cc1cccc(Nc2ncnc3cc(OCCOC)c(OCCOC)cc23)c1 [Erlotinib] + N#CC(c1ccnc(NCCc2cccnc2)n1)c1nc2ccccc2s1 [AS601245]"
  Target of assay: "SF268"
  Measured parameter: "HSA synergy score"
  Data value: 2.63
- Compound: "Nc1ccn([C@@H]2O[C@H](CO)[C@@H](O)C2(F)F)c(=O)n1 [Gemcitabine] + CO[C@H]1C[C@@H]2CC[C@@H](C)[C@@](O)(O2)C(=O)C(=O)N2CCCC[C@H]2C(=O)O[C@H]([C@H](C)C[C@@H]2CC[C@@H](O)[C@H](OC)C2)CC(=O)[C@H](C)/C=C(\\C)[C@@H](O)[C@@H](OC)C(=O)[C@H](C)C[C@H](C)/C=C/C=C/C=C/1C [Rapamycin]"
  Target of assay: "SF268"
  Measured parameter: "HSA synergy score"
  Data value: 18.5
- Compound: "Cc1cc([C@@H](C)Nc2ccccc2C(=O)O)c2nc(N3CCOCC3)cc(=O)n2c1 [AZD6482] + CCOc1nc(NC(=O)Cc2cc(OC)ccc2OC)cc(N)c1C#N [JNK inhibitor VIII]"
  Target of assay: "SF268"
  Measured parameter: "HSA synergy score"
  Data value: 4.35
- Compound: "CCCCCCCCCCCC1=C(O)C(=O)C=C(O)C1=O [Embelin] + N#CC(c1ccnc(NCCc2cccnc2)n1)c1nc2ccccc2s1 [AS601245]"
  Target of assay: "SF268"
  Measured parameter: "HSA synergy score"
  Data value: 5.6

###

# System: SF539
# Method description: HSA synergy score (Combenefit); higher = more synergy
# Condition description: exposure time: 72 h

- Molecule: "C=CCc1cccc(/C=N/NC(=O)CN2CCN(Cc3ccccc3)CC2)c1O [PAC-1] + Cc1cc([C@@H](C)Nc2ccccc2C(=O)O)c2nc(N3CCOCC3)cc(=O)n2c1 [AZD6482]"
  HSA synergy score: 0.0112
- Molecule: "Nc1ccn([C@@H]2O[C@H](CO)[C@@H](O)C2(F)F)c(=O)n1 [Gemcitabine] + CCOc1nc(NC(=O)Cc2cc(OC)ccc2OC)cc(N)c1C#N [JNK inhibitor VIII]"
  HSA synergy score: 2.34
- Molecule: "O=c1[nH]c2ccccc2n1C1CCN(Cc2ccc(-c3[nH]c4cc5ncnc5cc4nc3-c3ccccc3)cc2)CC1 [Akt inhibitor VIII] + N#CC(c1ccnc(NCCc2cccnc2)n1)c1nc2ccccc2s1 [AS601245]"
  HSA synergy score: 0.651
- Molecule: "CCC(=O)N1CCN(c2ccc(-n3c(=O)ccc4cnc5ccc(-c6cnc7ccccc7c6)cc5c43)cc2C(F)(F)F)CC1 [Torin1] + C#Cc1cccc(Nc2ncnc3cc(OCCOC)c(OCCOC)cc23)c1 [Erlotinib]"
  HSA synergy score: 14
- Molecule: "C=CCc1cccc(/C=N/NC(=O)CN2CCN(Cc3ccccc3)CC2)c1O [PAC-1] + CCOc1nc(NC(=O)Cc2cc(OC)ccc2OC)cc(N)c1C#N [JNK inhibitor VIII]"
  HSA synergy score: 7.4
- Molecule: "Nc1ccn([C@@H]2O[C@H](CO)[C@@H](O)C2(F)F)c(=O)n1 [Gemcitabine] + Cc1cc([C@@H](C)Nc2ccccc2C(=O)O)c2nc(N3CCOCC3)cc(=O)n2c1 [AZD6482]"
  HSA synergy score: 10.4
- Molecule: "CCC(=O)N1CCN(c2ccc(-n3c(=O)ccc4cnc5ccc(-c6cnc7ccccc7c6)cc5c43)cc2C(F)(F)F)CC1 [Torin1] + O=c1[nH]c2ccccc2n1C1CCN(Cc2ccc(-c3[nH]c4cc5ncnc5cc4nc3-c3ccccc3)cc2)CC1 [Akt inhibitor VIII]"
  HSA synergy score: 10.4
- Molecule: "CC(=O)O[C@@]12CO[C@@H]1C[C@H](O)[C@@]1(C)C(=O)[C@H](O)C3=C(C)[C@@H](OC(=O)[C@H](O)[C@@H](NC(=O)OC(C)(C)C)c4ccccc4)C[C@@](O)([C@@H](OC(=O)c4ccccc4)[C@H]21)C3(C)C [Docetaxel] + CCCCCCCCCCCC1=C(O)C(=O)C=C(O)C1=O [Embelin]"
  HSA synergy score: 3.01
- Molecule: "CO[C@H]1C[C@@H]2CC[C@@H](C)[C@@](O)(O2)C(=O)C(=O)N2CCCC[C@H]2C(=O)O[C@H]([C@H](C)C[C@@H]2CC[C@@H](O)[C@H](OC)C2)CC(=O)[C@H](C)/C=C(\\C)[C@@H](O)[C@@H](OC)C(=O)[C@H](C)C[C@H](C)/C=C/C=C/C=C/1C [Rapamycin] + C=CCc1cccc(/C=N/NC(=O)CN2CCN(Cc3ccccc3)CC2)c1O [PAC-1]"
  HSA synergy score: 4.8
